These entries and their values trace back to ChEMBL document CHEMBL5291721.

Can you tell me AC50 for the items I'm about to list?
Target: Muscarinic acetylcholine receptor M2 (Homo sapiens); note: assay procedure not described here
Sequence (P08172 whole entry): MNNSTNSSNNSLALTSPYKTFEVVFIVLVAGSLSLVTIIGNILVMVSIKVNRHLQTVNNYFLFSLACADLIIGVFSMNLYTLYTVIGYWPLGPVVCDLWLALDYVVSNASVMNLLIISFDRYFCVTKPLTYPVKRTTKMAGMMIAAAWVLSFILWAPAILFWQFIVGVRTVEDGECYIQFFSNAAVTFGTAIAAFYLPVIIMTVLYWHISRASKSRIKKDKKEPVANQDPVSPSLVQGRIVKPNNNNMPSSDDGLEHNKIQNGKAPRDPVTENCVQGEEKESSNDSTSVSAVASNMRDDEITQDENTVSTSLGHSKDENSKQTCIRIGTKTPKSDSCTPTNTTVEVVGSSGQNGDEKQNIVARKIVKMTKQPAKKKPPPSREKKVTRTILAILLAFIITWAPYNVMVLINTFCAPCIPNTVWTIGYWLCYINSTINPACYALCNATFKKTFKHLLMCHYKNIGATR
Assay type: functional, cell-based

Nc1cc(N2CCCCC2)nc(N)[n+]1[O-] ... > 10 µM
CCc1ccc(C(=O)C(C)CN2CCCCC2)cc1 (centres undefined) ... > 30 µM
CCC(NC(C)C)C(O)c1ccc(O)c(O)c1 (centres undefined) ... > 30 µM
CN(Cc1ccc(C(C)(C)C)cc1)Cc1cccc2ccccc12 ... > 10 µM
CN(C)CCN(Cc1ccccc1)c1ccccn1 ... > 10 µM
CC(=O)[C@@]1(O)CC[C@H]2[C@@H]3C[C@H](C)C4=CC(=O)C=C[C@]4(C)[C@@]3(F)[C@@H](O)C[C@@]21C ... > 10 µM
C[C@@H](Cc1ccccc1)N(C)Cc1ccccc1 ... > 10 µM
C[C@H](CCC(=O)O)[C@H]1CC[C@H]2[C@@H]3[C@H](O)C[C@@H]4C[C@H](O)CC[C@]4(C)[C@H]3CC[C@]12C ... > 30 µM
Nc1nc(Cl)nc2c1ncn2[C@@H]1O[C@H](CO)[C@@H](O)[C@@H]1F ... > 10 µM
COc1cccc2c1C(=O)c1c(O)c3c(c(O)c1C2=O)C[C@@](O)(C(=O)CO)C[C@@H]3O[C@H]1C[C@H](N)[C@H](O)[C@H](C)O1 ... > 10 µM

Respectfully, I request AC50 for each entry included below.
1. CCN(CC)CCn1c(=O)c(Cc2ccc(OC)cc2)nc2ccccc21
2. CN(C)CCc1c[nH]c2ccc(CS(=O)(=O)N3CCCC3)cc12
3. CC(C)(C)NCC(O)COc1ccccc1C#N (centres undefined)

["> 30 µM", "> 30 µM", "> 30 µM"]

For every item in the list below, what is its measured AC50?
1. Oc1cc(O)c2c(c1)O[C@H](c1ccc(O)c(O)c1)[C@@H](O)C2
2. O=C(O)c1ccc2nc(-c3cc(Cl)cc(Cl)c3)oc2c1
3. Cc1cnc(Nc2ccc(OCCN3CCCC3)cc2)nc1Nc1cccc(S(=O)(=O)NC(C)(C)C)c1
4. CCC(=O)[C@@]1(C)[C@H](C)C[C@H]2[C@@H]3CCC4=CC(=O)C=C[C@]4(C)[C@H]3[C@@H](O)C[C@@]21C [RIMEXOLONE]

1. > 10 µM
2. > 30 µM
3. > 10 µM
4. > 10 µM

Quick request: AC50 for each listed item, please.
1. O=C(Cc1cccs1)N[C@@H]1C(=O)N2C(C(=O)[O-])=C(C[n+]3ccccc3)CS[C@H]12
2. CCCCOC(=O)C(=O)Nc1cccc(-c2nnn[nH]2)c1
3. CCCCC[C@H](O)CC[C@@H]1[C@H]2Cc3cccc(OCC(=O)O)c3C[C@H]2C[C@H]1O
4. CC(C)(CO)c1cc2cc(NC(=O)C3(c4ccc5c(c4)OC(F)(F)O5)CC3)c(F)cc2n1C[C@@H](O)CO
5. CCN(CC)C(C)C(=O)c1ccccc1 (centres undefined)
6. CC(=O)OCC1=C(C(=O)O)N2C(=O)[C@@H](NC(=O)Cc3cccs3)[C@H]2SC1
7. CC(C)(N)Cc1ccccc1

> 30 µM
> 30 µM
> 30 µM
> 30 µM
> 10 µM
> 30 µM
> 10 µM

Items follow; give AC50 for each.
1. NCCCCCC(=O)O
2. OCC(CO)N[C@H]1C[C@](O)(CO)[C@@H](O)[C@H](O)[C@H]1O
3. CNC1(C)C2CCC(C2)C1(C)C (centres undefined)
4. COc1cc2c(cc1OC)C1CC(=O)C(CC(C)C)CN1CC2 (centres undefined)
5. O=C1CN=C(c2ccccc2Cl)c2cc([N+](=O)[O-])ccc2N1
6. CCC[C@@]1(CCc2ccccc2)CC(O)=C([C@H](CC)c2cccc(NS(=O)(=O)c3ccc(C(F)(F)F)cn3)c2)C(=O)O1
7. CC(=O)SCC(Cc1ccccc1)C(=O)NCC(=O)OCc1ccccc1 (centres undefined)
8. CC1=C(/C=C/C(C)=C/C=C/C(C)=C/C(=O)Oc2c(C)c(C)c3c(c2C)CCC(C)(CCCC(C)CCCC(C)CCCC(C)C)O3)C(C)(C)CCC1 (centres undefined)

1: > 10 µM; 2: > 30 µM; 3: > 10 µM; 4: > 30 µM; 5: > 10 µM; 6: > 30 µM; 7: > 30 µM; 8: > 30 µM

I would be grateful if you could provide AC50 for each of the following entries.
1. CCC(=O)c1ccc2c(c1)N(CC(C)N(C)C)c1ccccc1S2 (centres undefined)
2. COC(=O)c1ccc2c(c1)NC(=O)/C2=C(\Nc1ccc(N(C)C(=O)CN2CCN(C)CC2)cc1)c1ccccc1

1: > 10 µM; 2: > 30 µM
